- target_system: PEG-3 (UniProt Q6IN02)
- Sequence (Q6IN02 whole entry, looked up): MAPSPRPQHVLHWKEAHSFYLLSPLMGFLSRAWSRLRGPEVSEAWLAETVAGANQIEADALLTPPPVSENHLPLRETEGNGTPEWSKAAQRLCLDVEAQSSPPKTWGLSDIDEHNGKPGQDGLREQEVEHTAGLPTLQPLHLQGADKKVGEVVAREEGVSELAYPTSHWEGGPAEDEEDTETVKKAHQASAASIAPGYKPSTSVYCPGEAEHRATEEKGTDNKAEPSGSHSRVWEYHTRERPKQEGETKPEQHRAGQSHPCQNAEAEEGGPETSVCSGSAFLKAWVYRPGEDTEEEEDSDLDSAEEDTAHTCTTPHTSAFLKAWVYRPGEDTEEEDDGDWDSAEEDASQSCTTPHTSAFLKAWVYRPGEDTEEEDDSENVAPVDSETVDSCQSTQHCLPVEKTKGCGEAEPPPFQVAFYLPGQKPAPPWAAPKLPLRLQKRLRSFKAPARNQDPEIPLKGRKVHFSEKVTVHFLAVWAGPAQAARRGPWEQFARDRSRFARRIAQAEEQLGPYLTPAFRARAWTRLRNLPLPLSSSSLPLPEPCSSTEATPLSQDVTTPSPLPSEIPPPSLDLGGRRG
- test_method_notes: Peg3 promoter luciferase inhibitors, potency, dose response, cell-based, HeLa, CREF/GAPDH counter-screen panel (AID 624167)
- particulars: HeLa PEG-Prom luciferase reporter, overnight, CREF/GAPDH counter-screens, mean of runs
Activity calls are given as the source filed them.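 The calls were made as follows: active = mean IC50 for reducing PEG3 promoter reporter signal at or below a set limit, with IC50 above the limit in both counter screens; inactive = the rest, including counter screen hits.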
Use one of these outcomes when replying: active, inactive

COCCn1c(C)cc(C(=O)CSc2nnc3ccccn23)c1C
active
C/C(=N\N=C(N)N)c1ccc(Cl)c(Cl)c1
active
Cc1cc(/C=c2/sc3nc4ccccc4n3c2=O)c(C)n1-c1ccccn1
inactive
Cc1ccc(-c2nc(-c3ccccn3)no2)cc1
active

Kindly provide the recorded test outcome for the following compound: COc1ccc(-c2cc(C(=O)N(C)Cc3ccccc3F)c3ccccc3n2)cc1OC inactive

Kindly provide the recorded test outcome for the following compound: O=S(=O)(Nc1cccc2ncccc12)c1cccs1 active

Kindly provide the recorded test outcome for the following compound: O=[N+]([O-])c1ccc(S(=O)(=O)c2ccccc2)nc1 active

Kindly provide the recorded test outcome for the following compound: COc1ccc2sc(N(CCCN(C)C)C(=O)c3ccc(S(=O)(=O)N4CCCc5ccccc54)cc3)nc2c1 inactive

Kindly provide the recorded test outcome for the following compound: Cc1ccc(C(C[N+](=O)[O-])Sc2ccc(N)cc2)cc1 (stereo not drawn) active

Kindly provide the recorded test outcome for the following compound: COc1ccc(-c2nc3c(C(=O)NCCN(C)C)cccc3c3ccccc23)cc1 active

Kindly provide the recorded test outcome for the following compound: CC1CCCCN1C(=O)c1cccc(NC2=C(Cl)C(=O)N(Cc3ccccc3)C2=O)c1 (stereo not drawn) inactive

Kindly provide the recorded test outcome for the following compound: CCCOC(=O)c1cccc(Nc2nc(-c3cccnc3)nc3ccccc23)c1 active

* * *

Give pIC50 for every item shown.
- Tested on: PEG-3
- test_method_notes: Peg3 promoter luciferase inhibitors, potency, dose response, cell-based, HeLa, CREF/GAPDH counter-screen panel (AID 624167)
- particulars: HeLa PEG-Prom luciferase reporter, overnight, CREF/GAPDH counter-screens, run 1, dose range 1, individual replicate IC50 per panel
Numbers only, as −log10 of the molar value.

The cases that follow already have their pIC50 on record.
C(=Cc1cnc2ccccc2n1)c1ccc2c(c1)OCO2
5.77
CN(Cc1ccccc1)C(=O)c1ccc(Nc2nc(C(N)Cc3ccccc3)cs2)nc1 (stereo unspecified)
4.66
O=C(CCCN1C(=O)/C(=C/c2cccc(Br)c2)SC1=S)Nc1cccnc1
4.82
O=C(Nc1ccc(S(=O)(=O)NC2=NCCCCC2)cc1)c1ccc([N+](=O)[O-])s1
4.72
CC(=O)Nc1ccc(S(=O)(=O)N(Cc2ccco2)Cc2cc3ccccc3[nH]c2=O)cc1
4.73

Provide pIC50 for all items below, preserving their order.
1. COc1ccc(CN2CCN(C(=O)c3cc(-c4cccnc4)nc4ccc(Cl)cc34)CC2)c(OC)c1OC
2. NC(=O)C1CCN(C2=C(Cl)C(=O)c3ccccc3C2=O)CC1

[4.28, 4.75]

Provide pIC50 for all items below, preserving their order.
1. Cc1cc(C)c2sc(N(CCCN(C)C)C(=O)c3ccc(S(=O)(=O)N(C)Cc4ccccc4)cc3)nc2c1
2. CCOc1ccc2nc(NC(=O)c3ccccn3)sc2c1
3. O=C1C(Cl)=C(Nc2ccc(O)cc2)C(=O)c2ccccc21
4. C(=N\Nc1nc2ccccc2[nH]1)/c1ccccn1

[4.69, 5.36, 4.79, 5.37]

Provide pIC50 for all items below, preserving their order.
1. COc1ccc(CC(N)c2csc(NC(=O)Nc3ccccc3C(C)(C)C)n2)cc1 (stereo unspecified)
2. COc1ccc(Nc2ncnc3ccc(Br)cc23)c(OC)c1
3. CN(C)c1ccc(/C=C/c2nc3ccccc3s2)cc1
4. COc1cccc2c1C(=O)c1c(O)c3c(c(O)c1C2=O)CC(O)(C(C)=NNC(=O)c1ccc(Cl)c(Cl)c1)CC3OC1CC(N)C(O)C(C)O1 (stereo unspecified)
5. COc1cccc(CN(C)C(=O)C(CCSC)NS(=O)(=O)c2ccc3c(c2)OCCO3)c1OC (stereo unspecified)
6. CC(C)CC(NS(=O)(=O)OCC(Cl)(Cl)Cl)c1ccccc1 (stereo unspecified)
7. Cc1ccc(N2CC(C(=O)Nc3nccs3)CC2=O)cc1Cl (stereo unspecified)

4.72
6.53
5.32
5.84
4.21
4.32
4.48

Provide pIC50 for all items below, preserving their order.
1. Fc1ccc(-c2nnc(NC3=NCCCCC3)o2)cc1
2. O=C(CN1C(=O)c2ccccc2S1(=O)=O)c1ccc2c(c1)OCCCO2

1: 5.39; 2: 6.11
